Data provenance is the supplement of paper PMC12669032.

Test system: Lactobacillus gasseri
Assay: growth AUC relative to DMSO control (median of replicates) (fraction); higher = more growth (less inhibition), active = hit call of the paper
Settings: 20 µM; 24 h
Each record here notes measured growth AUC.
Note: the reply should be a number with no unit written.

{"COMPOUND": "C#CC(C)(C)NC(=O)c1cc(Cl)cc(Cl)c1", "MEASURED_ON": "Lactobacillus gasseri", "growth AUC": 0.91}
{"COMPOUND": "CNC(=O)Oc1cccc2ccccc12", "MEASURED_ON": "Lactobacillus gasseri", "growth AUC": 0.907}
{"COMPOUND": "CCOC(=O)CC(SP(=O)(OC)OC)C(=O)OCC (centres undefined)", "MEASURED_ON": "Lactobacillus gasseri", "growth AUC": 0.883}

**Q:** Entry CCOC(=O)CCN(SN(C)C(=O)Oc1cccc2c1OC(C)(C)C2)C(C)C has what growth AUC?
**A:** 0.911
